Data provenance: ChEMBL document CHEMBL3039007

- EXPERIMENTAL_TARGET: Solute carrier organic anion transporter family member 1B1 (Homo sapiens)
- TEST_CONTEXT: chinese hamster, cho, 10 µM
Field: residual activity. Provide a value for each of the compounds that follow.
Give bare numbers, in %.

Count: 2. Required value per item: residual activity.
1. Cl.N=c1ccn2c(n1)O[C@H]1[C@H](O)[C@@H](CO)O[C@H]12 [ANCITABINE HYDROCHLORIDE]
2. CC(Oc1ccccc1)C(=O)N[C@@H]1C(=O)N2[C@@H]1SC(C)(C)[C@@H]2C(=O)[O-].[K+] (some centres undefined) [PHENETHICILLIN POTASSIUM]

[68.78, 83.14]

Fill in residual activity for each of the 7 compounds listed.
1. COc1cc2c(cc1OC)C(=O)c1ccc(OC)c(OC)c1OCC(=O)C2 [HAEMATOXYLONE, TETRAMETHYL-]
2. COc1ccc2cc([C@H](C)CO)ccc2c1 [NAPROXOL]
3. O=C(Cc1ccccc1)NO [PHENYLACETOHYDROXAMIC ACID]
4. COc1ccc(C(C)=O)c(O)c1 [PAEONOL]
5. C#C[C@]1(O)CC[C@H]2[C@@H]3CCC4=C(CCC(=O)C4)[C@H]3CC[C@@]21C [NORETHYNODREL]
6. C=C1[C@@H]2CC[C@@]3(C)[C@H](c4ccoc4)OC(=O)C[C@]13O[C@H]1C[C@H](O)C(C)(C)[C@H](CC(=O)OC)[C@]12C
7. CC(C)N1C(=O)c2ccccc2NS1(=O)=O [BENTAZON]

1. 141.3
2. 241.9
3. 58.46
4. 121.7
5. 64.52
6. 16
7. 109.9

###

- EXPERIMENTAL_TARGET: Solute carrier organic anion transporter family member 1B3 (Homo sapiens, UniProt Q9NPD5)
- Sequence (Q9NPD5 whole entry): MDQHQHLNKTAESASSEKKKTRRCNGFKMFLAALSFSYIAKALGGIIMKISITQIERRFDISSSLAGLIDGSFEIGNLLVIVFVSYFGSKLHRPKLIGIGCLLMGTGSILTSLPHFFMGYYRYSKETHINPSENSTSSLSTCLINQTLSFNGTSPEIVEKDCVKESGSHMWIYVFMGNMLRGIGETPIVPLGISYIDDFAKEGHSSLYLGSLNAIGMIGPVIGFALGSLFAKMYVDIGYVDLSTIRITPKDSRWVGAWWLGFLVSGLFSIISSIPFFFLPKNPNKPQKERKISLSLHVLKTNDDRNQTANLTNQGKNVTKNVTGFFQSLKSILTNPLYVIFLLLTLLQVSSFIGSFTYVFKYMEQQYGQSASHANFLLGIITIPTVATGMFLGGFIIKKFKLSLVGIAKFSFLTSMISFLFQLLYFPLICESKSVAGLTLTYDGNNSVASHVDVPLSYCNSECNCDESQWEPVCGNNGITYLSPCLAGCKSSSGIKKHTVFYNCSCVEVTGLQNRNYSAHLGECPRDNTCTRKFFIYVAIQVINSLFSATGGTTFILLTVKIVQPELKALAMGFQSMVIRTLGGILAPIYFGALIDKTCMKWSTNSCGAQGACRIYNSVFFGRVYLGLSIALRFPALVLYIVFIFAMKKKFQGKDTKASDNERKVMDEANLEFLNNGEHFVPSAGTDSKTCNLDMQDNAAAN
- TEST_CONTEXT: chinese hamster, cho, 10 µM
Criterion: residual activity meeting or surpassing 90%. Met: Met. Not met: Not met.

{"columns": ["MOLECULE", "EXPERIMENTAL_TARGET", "ANSWER_LABEL"],
 "data": [
  ["C[C@@H]1CC[C@]2(NC1)O[C@H]1C[C@H]3[C@@H]4CC=C5C[C@@H](O)CC[C@]5(C)[C@H]4CC[C@]3(C)[C@H]1[C@@H]2C", "Solute carrier organic anion transporter family member 1B3 (Homo sapiens, UniProt Q9NPD5)", "Met"],
  ["CC1=C(/C=C/C(C)=C/C=C/C(C)=C/C=C/C=C(C)/C=C/C=C(C)/C=C/C(=O)[C@]2(C)C[C@@H](O)CC2(C)C)C(C)(C)C[C@H](O)C1", "Solute carrier organic anion transporter family member 1B3 (Homo sapiens, UniProt Q9NPD5)", "Met"],
  ["COc1cc2ccc(=O)oc2c2ccoc12", "Solute carrier organic anion transporter family member 1B3 (Homo sapiens, UniProt Q9NPD5)", "Met"],
  ["CC1(C)C(=O)CC[C@]2(C)[C@@H]1C[C@@H](O)[C@]1(C)C3=CC(=O)O[C@H](c4ccoc4)[C@@]3(C)CC[C@@H]21", "Solute carrier organic anion transporter family member 1B3 (Homo sapiens, UniProt Q9NPD5)", "Not met"],
  ["O[C@@H]1[C@@H](O)[C@@H]2OC[C@@H](O2)[C@H]1O", "Solute carrier organic anion transporter family member 1B3 (Homo sapiens, UniProt Q9NPD5)", "Met"]
]}

# next molecule below
Can O=C(OCC(O)CO)c1ccccc1Nc1ccnc2cc(Cl)ccc12 (stereo not drawn) be said to have residual activity at or above 90%?
Met

###

Exercise: state measured residual activity for each of the molecules provided.
- EXPERIMENTAL_TARGET: Solute carrier organic anion transporter family member 1B3 (Homo sapiens, UniProt Q9NPD5)
- TEST_CONTEXT: chinese hamster, cho, 10 µM
Numbers only, in %.

{"columns": ["MOLECULE", "RECORDED_NUMBER"],
 "data": [
  ["CCC(C)C(=O)c1c(O)c(C)c2oc3c(C)c(O)c(C(=O)C(C)CC)c(O)c3c2c1O (stereo unspecified) [RHODOMYRTOXIN B]", 37.47],
  ["COc1cc2c(cc1OC)[C@@H]1C(=O)c3ccc4c(c3O[C@@H]1CO2)CC(C(C)C)O4 (stereo partly specified) [DIHYDROROTENONE]", 63.71],
  ["CC(=O)O[C@@H]1C[C@H]2C(C)(C)C(=O)CC[C@]2(C)[C@H]2CC[C@]3(C)C(=CC(=O)O[C@H]3c3ccoc3)[C@@]21C", 54.65],
  ["CCCc1occc(=O)c1/C=C/O [2-PROPYL-3-HYDROXYETHYLENEPYRAN-4-ONE]", 129.3],
  ["O=c1[nH]cnc2nc[nH]c12 [HYPOXANTHINE]", 92.8]
]}

Would you mind listing residual activity for each of the following molecules?
1. COc1cc(-c2coc3cc(OCc4ccccc4)c(OC)c(O)c3c2=O)cc(OCc2ccccc2)c1OC [IRIGENIN, DIBENZYL ETHER]
2. COc1ccc2c(c1)[nH]c1c(C)nccc12 [HARMINE]
3. COc1cc(NS(=O)(=O)c2ccc(N)cc2)nc(OC)n1 [SULFADIMETHOXINE]

93.33
101.7
103

Provide each entry's residual activity from the list below.
1. CN[C@H]1CC[C@@H](c2ccc(Cl)c(Cl)c2)c2ccccc21.Cl [SERTRALINE HYDROCHLORIDE]
2. CCCCCCc1ccc(O)cc1O [HEXYLRESORCINOL]
3. CC[n+]1c(-c2ccccc2)c2cc(N)ccc2c2ccc(N)cc21.[Br-] [HOMIDIUM BROMIDE]
4. Cl.O=C(O)c1cn(-c2ccc(F)cc2)c2cc(N3CCNCC3)c(F)cc2c1=O [SARAFLOXACIN HYDROCHLORIDE]
5. O=C(O)c1cc2cc(Cl)ccc2[nH]1 [5-CHLOROINDOLE-2-CARBOXYLIC ACID]
6. CC(=O)O[C@H]1C[C@@H](OC(C)=O)C(C)(C)[C@@H]2C[C@@H](OC(C)=O)[C@@]3(C)C4=CC(=O)O[C@@H](c5ccoc5)[C@]4(C)CC[C@@H]3[C@@]12C
7. CN(C)C(=O)Oc1ccc[n+](C)c1.[Br-] [PYRIDOSTIGMINE BROMIDE]

[72.13, 84.11, 100.7, 115.6, 91.36, 104.2, 112]

Any idea what residual activity came out for Cl.Cl.Fc1ccc(C(c2ccc(F)cc2)N2CCN(C/C=C/c3ccccc3)CC2)cc1 [FLUNARIZINE HYDROCHLORIDE] on Solute carrier organic anion transporter family member 1B3 (Homo sapiens, UniProt Q9NPD5)?
102.7

###

- EXPERIMENTAL_TARGET: UniProtKB Q9Y6L6
- Sequence (Q9Y6L6 whole entry): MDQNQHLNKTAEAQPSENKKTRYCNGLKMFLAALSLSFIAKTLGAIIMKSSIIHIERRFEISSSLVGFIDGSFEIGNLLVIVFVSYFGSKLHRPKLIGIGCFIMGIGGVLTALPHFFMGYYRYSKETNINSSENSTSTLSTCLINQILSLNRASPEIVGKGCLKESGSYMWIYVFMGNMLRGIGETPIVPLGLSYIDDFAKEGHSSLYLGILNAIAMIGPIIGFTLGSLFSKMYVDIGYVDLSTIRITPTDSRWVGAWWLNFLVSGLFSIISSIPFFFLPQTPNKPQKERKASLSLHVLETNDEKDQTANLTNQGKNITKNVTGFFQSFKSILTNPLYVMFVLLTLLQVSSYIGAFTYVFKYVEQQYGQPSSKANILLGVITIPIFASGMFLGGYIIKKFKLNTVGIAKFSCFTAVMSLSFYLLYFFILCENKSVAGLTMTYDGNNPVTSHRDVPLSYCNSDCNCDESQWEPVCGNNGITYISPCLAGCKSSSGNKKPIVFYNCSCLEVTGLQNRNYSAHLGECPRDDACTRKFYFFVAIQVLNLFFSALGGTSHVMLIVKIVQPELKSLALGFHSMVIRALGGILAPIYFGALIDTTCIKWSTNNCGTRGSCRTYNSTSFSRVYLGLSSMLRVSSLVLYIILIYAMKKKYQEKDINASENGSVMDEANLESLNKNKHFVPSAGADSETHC
- TEST_CONTEXT: chinese hamster, cho, 10 µM
For each of the compounds below, state its residual activity.
Give bare numbers, in %.

{"columns": ["COMPOUND", "EXPERIMENTAL_TARGET", "residual activity [%]"],
 "data": [
  ["CC1=C(O)C(=O)C=C2C1=CC=C1[C@@]2(C)CC[C@@]2(C)[C@@H]3C[C@](C)(C(=O)O)CC[C@]3(C)CC[C@]12C", "UniProtKB Q9Y6L6", 147.4],
  ["CCCCN(CC)c1c([N+](=O)[O-])cc(C(F)(F)F)cc1[N+](=O)[O-]", "UniProtKB Q9Y6L6", 96.31],
  ["COc1cc(OC)c2c(=O)c(-c3ccc4c(c3)OCO4)coc2c1", "UniProtKB Q9Y6L6", 132.5]
]}

Answer for every listed entry: what is its residual activity? The entries follow.
1. Cc1nc2sccn2c(=O)c1CCN1CCC(=C(c2ccc(F)cc2)c2ccc(F)cc2)CC1
2. CN1CCc2c(c3ccccc3n2Cc2ccccc2)C1.CN1CCc2c(c3ccccc3n2Cc2ccccc2)C1.O=S(=O)(O)c1cccc2c(S(=O)(=O)O)cccc12
3. CC1(C)CC[C@]2(C(=O)O)CC[C@]3(C)C(=CC[C@@H]4[C@@]5(C)CC[C@H](O)[C@@](C)(CO)[C@@H]5CC[C@]43C)[C@@H]2C1
4. CN[C@@H](Cc1c[nH]c2ccccc12)C(=O)O
5. COc1c2c(cc3c1OCO3)[C@]13C=C[C@H](OC)C[C@H]1N(C2)C[C@@H]3O
6. CC[C@@H](CO)NCCN[C@@H](CC)CO.Cl
7. N[C@@H](Cc1ccc(O)c(O)c1)C(=O)O
8. CO[C@H]1C[C@H](O[C@H]2CC[C@@]3(C)[C@H](CC[C@@H]4[C@@H]3CC[C@]3(C)[C@@H](C5=CC(=O)OC5)[C@@H](OC(C)=O)C[C@]43O)C2)O[C@@H](C)[C@@H]1O

96.72
69.52
40.18
86.73
91.95
71.57
86.05
111.5
